assay: E. coli acrAB mutant growth effects, primary screen, E. coli filamentation inducers, strain DRC39, OD650, 24 h (AID 1178); conditions: higher = more signal, called active from +8 up or from −8 down;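 further: growth measured as culture turbidity by optical density at 650 nm; test concentration not given here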
Please mark Criterion met if the recorded z-score is equal to or greater than 0.8, and Criterion not met if it falls below.

Reference set (8 entries):
[[record]]
compound = "C#CCCCON=C1C[C@@H](O)[C@@H](O)[C@@H]2[C@@H]3C(=O)N([C@@H](C)c4ccccc4)C(=O)[C@@H]3CC[C@@H]12"
answer_label = "Criterion not met"

[[record]]
compound = "COc1ccc(COC(=O)NN=C2C[C@@H](O)[C@@H](O)[C@@H]3[C@@H]4C(=O)N(c5cccc(Oc6ccccc6)c5)C(=O)[C@@H]4CC[C@H]23)cc1"
answer_label = "Criterion met"

[[record]]
compound = "CCN1C(=O)[C@H]2[C@H]3[C@H](O)[C@H](O)CC(=NO[C@@H]4O[C@H](COC(C)=O)[C@@H](OC(C)=O)[C@H](OC(C)=O)[C@H]4OC(C)=O)[C@@H]3CC[C@H]2C1=O"
answer_label = "Criterion met"

[[record]]
compound = "O=C1CCCC=C1C(O)COCc1ccccc1 (stereo not given)"
answer_label = "Criterion not met"

[[record]]
compound = "O=C(NN=C1C[C@@H](O)[C@@H](O)[C@@H]2[C@@H]3C(=O)N(Cc4ccccc4)C(=O)[C@@H]3CC[C@H]12)OCc1ccccc1"
answer_label = "Criterion not met"

[[record]]
compound = "COC(=O)[C@H](C)NC(=O)CCC1CC(OC(=O)NCc2cccc3ccccc23)CC2(CCCC(COC(=O)NCCOc3ccccc3)O2)O1 (stereo not given in full)"
answer_label = "Criterion not met"

[[record]]
compound = "CON(C)C(=O)c1nnc2c(n1)[nH]c1ccccc12"
answer_label = "Criterion not met"

[[record]]
compound = "CO[C@@H](C(C)C)[C@@H](C)C1OC(=O)CC1O (stereo not given in full)"
answer_label = "Criterion not met"


Is z-score at least 0.8? Consider "CC(=O)OC[C@H]1O[C@@H](ON=C(C)CCC(=O)OC[C@H]2O[C@H](C#Cc3ccccc3)C=C[C@@H]2Oc2ccc(C)cc2)[C@H](OC(C)=O)[C@@H](OC(C)=O)[C@@H]1OC(C)=O"
Criterion not met

Quick check: does "CCOC(=O)NN=C1C[C@@H](O)[C@@H](O)[C@@H]2[C@@H]3C(=O)N(CC)C(=O)[C@@H]3CC[C@H]12" have z-score greater than or equal to 0.8?
Criterion not met

Determine whether this compound has z-score no lower than 0.8: "CO[C@@H]1COC(=O)[C@@H]2CCCN2C(=O)[C@@H](C)COC(=O)CCC[C@H]1C"
Criterion not met

Entry "C[C@H]1CC[C@@H](C(=O)O)N[C@@H]1c1cccc(N2CCCC2=O)c1" : is its z-score no less than 0.8?
Criterion met

---

The entries below are paired with their reported composite z-score.
biological target: Fibroblast growth factor 10 (Homo sapiens) (UniProt O15520); experiment: FGF10 binders on small-molecule microarrays, primary screen, biochemical, small-molecule microarray, 635 nm fluorescence (AID 1102); details: FGF10 binding, fluorescence 635 nm, higher = more signal
Sequence (O15520 whole entry, looked up): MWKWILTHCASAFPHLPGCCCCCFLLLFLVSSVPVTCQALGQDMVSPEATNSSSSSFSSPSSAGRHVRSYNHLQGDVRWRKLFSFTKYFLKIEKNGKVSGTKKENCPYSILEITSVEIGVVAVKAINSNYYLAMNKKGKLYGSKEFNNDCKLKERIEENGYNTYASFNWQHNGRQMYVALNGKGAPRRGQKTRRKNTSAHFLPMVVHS
Note: the reply should be a number with no unit written.

[[record]]
compound = "CC(C)=CCCC(C)=CCON=C1C[C@@H](O)[C@@H](O)[C@@H]2[C@@H]3C(=O)N(C4CCCCC4)C(=O)[C@@H]3CC[C@H]12"
reported = 0.785

[[record]]
compound = "CCOC(=O)[C@H](Cc1ccccc1)NC(=O)CCC1CC(OC(=O)NCc2ccc3c(c2)OCO3)CC2(CCCC(COC(=O)NCCOC)O2)O1 (stereo partly drawn)"
reported = 1.28

[[record]]
compound = "COC(=O)[C@@H]1CC[C@H](C)[C@@H](c2ccc(C)cc2)N1C(=O)c1ccc(C=NO[C@@H](C)c2cc(-c3c(C)cc(C)cc3C)no2)cc1"
reported = 0.418

[[record]]
compound = "C[C@H]1CC[C@H]2C(=O)O[C@H](CO)CN2[C@@H]1c1ccc(Br)cc1"
reported = -0.111

[[record]]
compound = "COC(=O)[C@H](C)NC(=O)CCC1CC(OC(=O)NCc2cccc3ccccc23)CC2(CCCC(COC(=O)NCc3ccccc3)O2)O1 (stereo partly drawn)"
reported = 0.625


// query composite z-score value for entry COC(=O)[C@H](C)NC(=O)CCC1CC(OC(=O)NCc2cccc3ccccc23)CC2(CCCC(COC(=O)NCCc3ccccc3OC)O2)O1 (stereo partly drawn)
1.23

Please look up its composite z-score: "CCOC(=O)CCN1C(=O)[C@H]2[C@H]3[C@H](O)[C@H](O)CC(=O)[C@@H]3CC[C@H]2C1=O"
1.1

Which composite z-score value is on record for "CC(C)=NO[C@H](C)c1cn([C@@H]2COC[C@H]2O)nn1" ?
0.728

---

target: Torsin-1A (Homo sapiens) (UniProt O14656); assay: small-molecule binders of mutant TOR1A in lysate, primary screen, cell lysate, small-molecule microarray, COS7 lysate, 635/667 nm fluorescence (AID 1150); details: COS7 hTOR1A mutant lysate, 635 nm fluorescence, higher = more signal;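 further: score pools 667 nm emission and signal to noise measuring lysate protein binding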
Sequence (O14656 whole entry, looked up): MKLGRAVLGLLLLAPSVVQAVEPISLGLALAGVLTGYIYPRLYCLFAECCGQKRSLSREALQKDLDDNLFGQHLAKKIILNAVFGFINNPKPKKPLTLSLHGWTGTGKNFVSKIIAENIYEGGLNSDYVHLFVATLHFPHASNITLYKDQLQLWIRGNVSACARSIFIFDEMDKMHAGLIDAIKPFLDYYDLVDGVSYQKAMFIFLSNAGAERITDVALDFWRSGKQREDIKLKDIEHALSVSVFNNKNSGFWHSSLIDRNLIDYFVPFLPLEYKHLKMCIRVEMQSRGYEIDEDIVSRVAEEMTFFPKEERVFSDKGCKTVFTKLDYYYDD
measure-name: composite z-score
No unit in the answer, please; the number alone is enough.

Solved entries:
[[record]]
compound = "CC(C)[C@@H](OCc1ccccc1)[C@H](C)C=NO[C@@H](C)c1cn([C@H](CO)Cc2ccccc2)nn1"
reported = 0.441

[[record]]
compound = "COc1ccc(COC(=O)NN=C2C[C@@H](O)[C@@H](O)[C@@H]3[C@@H]4C(=O)N(Cc5ccc6c(c5)OCO6)C(=O)[C@@H]4CC[C@H]23)cc1"
reported = -0.647

[[record]]
compound = "CC(=O)OC[C@H]1O[C@@H](ON=C(C)C)[C@H](OC(C)=O)[C@@H](OC(C)=O)[C@@H]1OC(C)=O"
reported = 0.188


Now consider a different compound.
Tell me the measured composite z-score of CCOC(=O)[C@H](CC(C)C)NC(=O)CCC1CC(OC(=O)NCCc2ccc(F)cc2)CC2(CCCC(COC(=O)NCc3cccc4ccccc34)O2)O1 (some centres undefined) , please.
0.184

---

molecular target: Pro-neuregulin-1, membrane-bound isoform (Homo sapiens); assay: NRG1 binders on small-molecule microarrays, primary screen, psychiatric disease protein project, biochemical, small-molecule microarray, fluorescence 635/667 (AID 1075); conditions: NRG1 binding, 635 nm fluorescence, higher = more signal;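 further: score combines 667 nm spot fluorescence with signal to noise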
Each record here notes measured composite z-score.
Answer with the value's number alone.

Consider the following illustrative entries.
[[record]]
compound = "CO[C@H]1COC(=O)CC=C[C@H](C)[C@H](OC)COC(=O)[C@@H](C)NC(=O)CC=C[C@@H]1C"
reported = -0.468

[[record]]
compound = "COC(=O)[C@H](C)NC(=O)CCC1CC(OC(=O)NCCc2ccc(F)cc2)CC2(CCCC(COC(=O)NCc3ccccc3)O2)O1 (stereo partly drawn)"
reported = 0.648

[[record]]
compound = "CC#CCOCCC=C1c2ccccc2[C@@H](OC)[C@@H]1C"
reported = -0.361

[[record]]
compound = "COC(=O)CC=C1c2ccccc2[C@H](OC)[C@H]1C"
reported = -0.395

[[record]]
compound = "COC(=O)[C@H](Cc1ccccc1)NC(=O)[C@@H](C)CO"
reported = -0.35


Consider the compound shown here: "CCc1cc2c(nc1CC)CCN(CCC(C)=NOC[C@@H](C)[C@H](OCc1ccccc1)C(C)C)C2" What is its recorded composite z-score?
-0.769

Which composite z-score is reported for this compound? "CCN1C(=O)[C@H]2[C@H]3[C@H](O)[C@H](O)CC(=NOCC[C@@H]4C=C[C@H](OC(C)=O)[C@@H](COC(C)=O)O4)[C@@H]3CC[C@H]2C1=O"
0.0776

Using the record for "O=C1[C@H]2CCn3c(=O)n(-c4ccccc4)c(=O)n3[C@H]2[C@H](O)[C@@H]2O[C@H]12" , report its composite z-score.
1.63

---

assay: binders of probe aFGF2 on microarray, primary screen, stem cell growth factor project, biochemical, small-molecule microarray, fluorescence 635/667 (AID 1067); settings: higher = more signal;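 further: measures binding of biotinylated aFGF2 protein to printed compounds on slides; z-score merges feature fluorescence and signal-to-noise across triplicate slides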
measure-name: composite z-score
// no unit string in output, number only

[[record]]
compound = "CC(C)C(=O)N[C@H]1CCCN1C(=O)C=Cc1ccccc1"
measure_name = "composite z-score"
reported = -0.0212

[[record]]
compound = "CCCNC(=O)OC[C@H]1O[C@H](CCON=C[C@@H](C)[C@H](OCc2ccccc2)C(C)C)C=C[C@@H]1Oc1ccc(OC)cc1"
measure_name = "composite z-score"
reported = -0.161

[[record]]
compound = "COC(=O)[C@H](C)NC(=O)CCC1CC(OC(=O)NCc2cccc3ccccc23)CC2(CCCC(COC(=O)NCc3cccc(C(F)(F)F)c3)O2)O1 (stereo partly drawn)"
measure_name = "composite z-score"
reported = -0.0316

[[record]]
compound = "CC(CCC(=O)OC[C@H]1O[C@H](C#Cc2ccccc2)C=C[C@@H]1Oc1ccc(C)cc1)=NOC[C@@H](C)[C@H](OCc1ccccc1)C(C)C"
measure_name = "composite z-score"
reported = -0.121

[[record]]
compound = "C[C@H]1CC[C@@H](C(=O)O)N[C@@H]1c1cccc(N2CCCC2=O)c1"
measure_name = "composite z-score"
reported = -0.145

[[record]]
compound = "COCC#Cc1ccc([C@@H]2N[C@H](C(=O)O)CC[C@H]2C)cc1"
measure_name = "composite z-score"
reported = -0.12

[[record]]
compound = "CCOC(=O)CCN1C(=O)[C@H]2[C@H]3[C@H](O)[C@H](O)CC(=NOCC=C(C)CCC=C(C)C)[C@@H]3CC[C@H]2C1=O"
measure_name = "composite z-score"
reported = -0.133


Now for another entry.
Tell me the measured composite z-score of "CO[C@@H]1COC(=O)[C@@H]2CCCN2C(=O)[C@@H](C)COC(=O)CCC[C@H]1C" , please.
-0.0836
